- Test system: Streptococcus pneumoniae
- measurementDescription: Minimum inhibitory concentration measured against Streptococcus pneumoniae
- Type: functional
recordedEndpoint: MIC (µg/mL)

{"columns": ["cpdSmiles", "recordedMeasurement"],
 "data": [
  ["CC(=O)NC[C@H]1CN(c2ccc(/C=C(\\F)c3cnc(N)nc3)c(F)c2)C(=O)O1", 8],
  ["CC(=O)NC[C@H]1CN(c2ccc(/C=C(\\Br)c3ccc(C(C)=O)cc3)c(F)c2)C(=O)O1", 1],
  ["CC(=O)NC[C@H]1CN(c2ccc(/C=C(\\F)c3cccnc3)c(F)c2)C(=O)O1", 0.5],
  ["CC(=O)NC[C@H]1CN(c2ccc(/C=C(\\Br)c3cccc(CO)c3)c(F)c2)C(=O)O1", 1],
  ["COc1ccc(C(C)C)cc1/C(Br)=C/c1ccc(N2C[C@H](CNC(C)=O)OC2=O)cc1F", 64]
]}
